Each record here notes measured inhibition.
# target or system: Protein Mdm4 (Homo sapiens) + E3 ubiquitin-protein ligase Mdm2 (Homo sapiens) (UniProt O15151+Q00987)
# Sequence (O15151 whole entry, looked up): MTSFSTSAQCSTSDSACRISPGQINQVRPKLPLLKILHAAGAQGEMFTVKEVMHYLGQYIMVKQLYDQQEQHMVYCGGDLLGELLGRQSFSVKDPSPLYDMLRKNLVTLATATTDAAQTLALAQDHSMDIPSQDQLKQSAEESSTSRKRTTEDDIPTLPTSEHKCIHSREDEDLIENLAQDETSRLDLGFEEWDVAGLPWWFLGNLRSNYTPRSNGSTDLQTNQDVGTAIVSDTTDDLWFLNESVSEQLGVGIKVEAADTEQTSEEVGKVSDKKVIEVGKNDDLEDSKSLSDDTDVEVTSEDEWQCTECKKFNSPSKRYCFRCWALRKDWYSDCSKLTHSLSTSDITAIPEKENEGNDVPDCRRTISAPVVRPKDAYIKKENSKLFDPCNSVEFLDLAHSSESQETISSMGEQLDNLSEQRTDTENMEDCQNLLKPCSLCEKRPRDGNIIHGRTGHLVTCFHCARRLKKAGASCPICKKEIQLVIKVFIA
# Sequence (Q00987 whole entry, looked up): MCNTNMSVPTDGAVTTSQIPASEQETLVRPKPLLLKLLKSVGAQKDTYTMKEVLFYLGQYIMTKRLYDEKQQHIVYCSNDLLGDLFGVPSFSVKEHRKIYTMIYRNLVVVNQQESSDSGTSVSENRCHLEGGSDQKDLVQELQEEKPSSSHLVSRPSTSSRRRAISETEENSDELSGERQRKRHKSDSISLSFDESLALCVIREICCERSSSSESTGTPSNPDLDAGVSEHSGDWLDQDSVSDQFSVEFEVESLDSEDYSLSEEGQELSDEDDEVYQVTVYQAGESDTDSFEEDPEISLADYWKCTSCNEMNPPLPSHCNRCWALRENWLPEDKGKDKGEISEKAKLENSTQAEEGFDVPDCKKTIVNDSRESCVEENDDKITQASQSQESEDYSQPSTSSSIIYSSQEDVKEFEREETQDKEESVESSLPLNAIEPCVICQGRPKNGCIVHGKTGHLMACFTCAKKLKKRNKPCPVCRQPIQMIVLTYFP
# experimental details: inhibitors of human Mdm2-MdmX association, primary screen, cell-based, luminescence, split luciferase, SaOS-2, uHTS (AID 485346)
# measurement parameters: SaOS-2 split-luciferase Mdm2/MdmX complementation, at 8 µM, stronger effect = higher value
Screen size: about 330,000 compounds; about 10,000 (3%) were called active. Many of the other results were omitted from the sample, so actives are more common in it than they were.
Just the number please, in %, no unit attached.

The cases that follow already have their inhibition on record.
The measured inhibition associated with O=[N+]([O-])/C=C/c1ccc2c(ccn2Cc2ccccc2)c1 reads 95.5

For record O=C(CCNC(=O)c1ccccc1)NN=Cc1ccc(Br)o1 the listed inhibition is 5.26

response.value for Cc1cccc(N2CCN(C(=O)c3cc4c(=O)[nH]c5ccccc5c4n3C)CC2)c1C (field: inhibition) = 40.5

Just so you know, measured inhibition for Cc1nnc(NCCO)c2ccccc12 came out at -14

Looking up C[C@@H]1CN([C@@H](C)CO)C(=O)c2cccc(NS(=O)(=O)c3ccc(F)cc3)c2O[C@H]1CN(C)C(=O)NC1CCCCC1 , I found its inhibition recorded as -2.62

Consider the additional compound presented here.
Data point: C/C(=N\NC(=S)NCc1ccccc1)c1ccc(Cl)cc1 ; inhibition = 12.3
